- tested-on: Voltage-gated inwardly rectifying potassium channel KCNH2 (Homo sapiens) (UniProt Q12809)
- Sequence (Q12809 whole entry, looked up): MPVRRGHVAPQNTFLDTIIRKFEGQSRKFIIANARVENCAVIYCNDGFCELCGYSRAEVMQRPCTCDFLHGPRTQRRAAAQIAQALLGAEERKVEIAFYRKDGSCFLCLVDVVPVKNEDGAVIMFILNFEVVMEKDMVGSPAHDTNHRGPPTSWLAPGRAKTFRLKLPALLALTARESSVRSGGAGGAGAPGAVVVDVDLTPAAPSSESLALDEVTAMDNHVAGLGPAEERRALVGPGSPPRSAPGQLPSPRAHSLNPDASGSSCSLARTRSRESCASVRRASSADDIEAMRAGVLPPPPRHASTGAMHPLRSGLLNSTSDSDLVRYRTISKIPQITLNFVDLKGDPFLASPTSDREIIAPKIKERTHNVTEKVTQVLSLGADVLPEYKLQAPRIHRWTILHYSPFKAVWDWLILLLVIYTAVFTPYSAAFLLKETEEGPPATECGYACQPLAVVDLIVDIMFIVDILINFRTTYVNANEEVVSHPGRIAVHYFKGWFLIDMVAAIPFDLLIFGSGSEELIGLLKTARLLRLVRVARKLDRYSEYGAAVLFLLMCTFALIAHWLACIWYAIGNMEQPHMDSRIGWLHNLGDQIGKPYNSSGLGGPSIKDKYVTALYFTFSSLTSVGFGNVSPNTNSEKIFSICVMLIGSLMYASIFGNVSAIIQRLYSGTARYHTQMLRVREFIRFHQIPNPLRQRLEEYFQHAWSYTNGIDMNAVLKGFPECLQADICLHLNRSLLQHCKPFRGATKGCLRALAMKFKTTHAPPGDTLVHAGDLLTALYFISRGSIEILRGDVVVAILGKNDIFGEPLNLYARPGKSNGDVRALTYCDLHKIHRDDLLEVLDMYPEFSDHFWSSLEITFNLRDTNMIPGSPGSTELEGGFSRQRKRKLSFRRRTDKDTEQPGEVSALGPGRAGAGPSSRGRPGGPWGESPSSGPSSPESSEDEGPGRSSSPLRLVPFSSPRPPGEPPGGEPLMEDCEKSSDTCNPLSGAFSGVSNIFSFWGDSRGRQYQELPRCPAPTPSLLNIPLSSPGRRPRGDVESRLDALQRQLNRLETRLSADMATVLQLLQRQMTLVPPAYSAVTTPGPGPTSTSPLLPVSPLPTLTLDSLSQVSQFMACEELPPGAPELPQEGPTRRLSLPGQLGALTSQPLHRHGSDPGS
- procedure-text: qHTS Assay for Small Molecule Inhibitors of the Human hERG Channel Activity (AID 588834);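 also: lower thallium flux fluorescence means stronger hERG block; nearly all actives have a fitted effect of over 50% in size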
- test-parameters: U2OS BacMam hERG, FluxOR thallium flux fluorescence; series mostly up to 46.1 µM
Records with an inconclusive call do not appear. Active and inactive are the calls of the source. Calls follow the shape of the dose curve; as a rule, active = well fitted inhibition curve with a large enough effect; inconclusive = small, poorly fitted or top-dose-only effect; inactive = flat fitted curve, though single readings scatter.
Outcomes: True = active, False = inactive

[
  {
    "compound": "Cc1cccc(C2CN(C)CCc3c2cc(O)c(O)c3Cl)c1 (configuration not stated)",
    "tested-on": "Voltage-gated inwardly rectifying potassium channel KCNH2 (Homo sapiens) (UniProt Q12809)",
    "qualitative-label": "False"
  },
  {
    "compound": "Cc1nc2c(OCc3ccccc3)cccn2c1CC#N",
    "tested-on": "Voltage-gated inwardly rectifying potassium channel KCNH2 (Homo sapiens) (UniProt Q12809)",
    "qualitative-label": "False"
  },
  {
    "compound": "O=C(O)c1cccnc1C(=O)O",
    "tested-on": "Voltage-gated inwardly rectifying potassium channel KCNH2 (Homo sapiens) (UniProt Q12809)",
    "qualitative-label": "False"
  },
  {
    "compound": "COc1ccccc1N1CCN(CCN(C(=O)c2ccc(F)cc2)c2ccccn2)CC1",
    "tested-on": "Voltage-gated inwardly rectifying potassium channel KCNH2 (Homo sapiens) (UniProt Q12809)",
    "qualitative-label": "True"
  },
  {
    "compound": "O=C(O)c1cc2cc(F)ccc2[nH]1",
    "tested-on": "Voltage-gated inwardly rectifying potassium channel KCNH2 (Homo sapiens) (UniProt Q12809)",
    "qualitative-label": "False"
  },
  {
    "compound": "CC(=O)/C(C)=N/O",
    "tested-on": "Voltage-gated inwardly rectifying potassium channel KCNH2 (Homo sapiens) (UniProt Q12809)",
    "qualitative-label": "False"
  },
  {
    "compound": "COc1cc(/C=C(\\C#N)C(=O)c2ccc(O)c(O)c2)cc(I)c1O",
    "tested-on": "Voltage-gated inwardly rectifying potassium channel KCNH2 (Homo sapiens) (UniProt Q12809)",
    "qualitative-label": "False"
  }
]

###

- procedure-text: qHTS for Inhibitors of Cell Surface uPA Generation: Validation Assay (AID 493164);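 also: RAW 264.7 macrophage cells exposed to compound for 18 h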
- test-parameters: mouse cells, plasminogen activation; series mostly up to 38.3 µM
The source made the active and inactive calls. Calls come from the whole dose curve; as a rule, active = well fitted curve in the direction sought with a large enough effect; inconclusive = small, poorly fitted or top-dose-only effect, or effect the other way, or another doubt; inactive = no such curve, though single readings can be large or run the other way.

[
  {
    "compound": "O=C(O)CCC(=O)N1CCCC1C(=O)O (centres undefined)",
    "outcome": "inactive"
  },
  {
    "compound": "CC(=O)C(C)=O",
    "outcome": "inactive"
  },
  {
    "compound": "C=CCNc1ncnc2ccc(Br)cc12",
    "outcome": "inactive"
  },
  {
    "compound": "O=C(O)c1cccnc1C(=O)O",
    "outcome": "inactive"
  },
  {
    "compound": "COCc1nc2c([nH]1)c(=O)n(C)c(=O)n2CC(C)C",
    "outcome": "inactive"
  },
  {
    "compound": "N#CC(=C(\\N)Sc1ccccc1N)/C(C#N)=C(/N)Sc1ccccc1N",
    "outcome": "inactive"
  },
  {
    "compound": "N[C@@H](CCC(=O)N[C@H](CSN=O)C(=O)NCC(=O)O)C(=O)O",
    "outcome": "inactive"
  },
  {
    "compound": "OC[C@H]1NC[C@@H](O)[C@@H]1O",
    "outcome": "inactive"
  },
  {
    "compound": "Oc1cc(O)c2c(c1)O[C@H](c1ccc(O)c(O)c1)[C@@H](O)C2",
    "outcome": "inactive"
  },
  {
    "compound": "O=C1NC(=O)c2cc(Nc3ccccc3)c(Nc3ccccc3)cc21",
    "outcome": "inactive"
  },
  {
    "compound": "C#CC(N)CCC(=O)O (centres undefined)",
    "outcome": "inactive"
  },
  {
    "compound": "CN(C)C(=O)/N=N/C(=O)N(C)C",
    "outcome": "inactive"
  },
  {
    "compound": "Cc1cccc(C)c1OCC(N)C(C)C (centres undefined)",
    "outcome": "inactive"
  },
  {
    "compound": "CC(N)(Cc1ccc(O)c(O)c1)C(=O)O (centres undefined)",
    "outcome": "inactive"
  }
]

###

- tested-on: Phospholipid hydroperoxide glutathione peroxidase GPX4 (Homo sapiens)
- procedure-text: Primary qHTS Assay for Inhibitors of Recombinant Selenoprotein Glutathione Peroxidase 4 (GPX4) (AID 1845192); also: nearly all actives have a fitted effect of over 65% in size
- test-parameters: recombinant GPX4, GR-coupled NADPH fluorescence, 15 min; series mostly up to 50 µM
Records with an inconclusive call do not appear. Activity calls are given as the source filed them. Calls follow the shape of the dose curve; as a rule, active = well fitted inhibition curve with a large enough effect; inconclusive = small, poorly fitted or top-dose-only effect; inactive = flat fitted curve, though single readings scatter.
metric: outcome

[
  {
    "molecule": "OC[C@H]1O[C@@H](n2cnc3cncnc32)[C@H](O)[C@@H]1O",
    "tested-on": "Phospholipid hydroperoxide glutathione peroxidase GPX4 (Homo sapiens)",
    "metric": "outcome",
    "observed-result": "inactive"
  },
  {
    "molecule": "CCCCCC(O)CCCC(=O)O (stereo unspecified)",
    "tested-on": "Phospholipid hydroperoxide glutathione peroxidase GPX4 (Homo sapiens)",
    "metric": "outcome",
    "observed-result": "inactive"
  },
  {
    "molecule": "CC1C(=O)N(C)C(=O)c2nc[nH]c21 (stereo unspecified)",
    "tested-on": "Phospholipid hydroperoxide glutathione peroxidase GPX4 (Homo sapiens)",
    "metric": "outcome",
    "observed-result": "inactive"
  },
  {
    "molecule": "C=C1C[C@@]23CC[C@H]4[C@@](C)(CCC[C@@]4(C)C(=O)OC4OC(CO)C(O)C(O)C4O)[C@@H]2CC[C@]1(OC1OC(CO)C(O)C(O)C1OC1OC(CO)C(O)C(O)C1O)C3 (stereo partly specified)",
    "tested-on": "Phospholipid hydroperoxide glutathione peroxidase GPX4 (Homo sapiens)",
    "metric": "outcome",
    "observed-result": "inactive"
  },
  {
    "molecule": "CNC(=O)c1cc2c(cn1)[nH]c1ccccc12",
    "tested-on": "Phospholipid hydroperoxide glutathione peroxidase GPX4 (Homo sapiens)",
    "metric": "outcome",
    "observed-result": "inactive"
  },
  {
    "molecule": "COC(=O)C1=C(C)NC(C)=C([N+](=O)[O-])C1c1ccccc1C(F)(F)F (stereo unspecified)",
    "tested-on": "Phospholipid hydroperoxide glutathione peroxidase GPX4 (Homo sapiens)",
    "metric": "outcome",
    "observed-result": "inactive"
  },
  {
    "molecule": "C[C@](Cc1ccc(O)c(O)c1)(NN)C(=O)O",
    "tested-on": "Phospholipid hydroperoxide glutathione peroxidase GPX4 (Homo sapiens)",
    "metric": "outcome",
    "observed-result": "inactive"
  },
  {
    "molecule": "Cc1nc2n(c(=O)c1CCN1CCC(c3noc4cc(F)ccc34)CC1)CCCC2O (stereo unspecified)",
    "tested-on": "Phospholipid hydroperoxide glutathione peroxidase GPX4 (Homo sapiens)",
    "metric": "outcome",
    "observed-result": "inactive"
  },
  {
    "molecule": "COc1ccc(CCN(C)CCc2ccc(OC)c(OC)c2)cc1OC",
    "tested-on": "Phospholipid hydroperoxide glutathione peroxidase GPX4 (Homo sapiens)",
    "metric": "outcome",
    "observed-result": "inactive"
  },
  {
    "molecule": "NC(=O)CC[C@H](N)C(=O)O",
    "tested-on": "Phospholipid hydroperoxide glutathione peroxidase GPX4 (Homo sapiens)",
    "metric": "outcome",
    "observed-result": "inactive"
  },
  {
    "molecule": "COc1ccc(NC(=O)c2ccc(-c3ccc(-c4noc(C)n4)cc3C)cc2)cc1N1CCN(C)CC1",
    "tested-on": "Phospholipid hydroperoxide glutathione peroxidase GPX4 (Homo sapiens)",
    "metric": "outcome",
    "observed-result": "inactive"
  }
]

###

- tested-on: DNA polymerase III PolC-type (Bacillus subtilis (strain 168)) (UniProt P13267)
- Sequence (P13267 whole entry, looked up): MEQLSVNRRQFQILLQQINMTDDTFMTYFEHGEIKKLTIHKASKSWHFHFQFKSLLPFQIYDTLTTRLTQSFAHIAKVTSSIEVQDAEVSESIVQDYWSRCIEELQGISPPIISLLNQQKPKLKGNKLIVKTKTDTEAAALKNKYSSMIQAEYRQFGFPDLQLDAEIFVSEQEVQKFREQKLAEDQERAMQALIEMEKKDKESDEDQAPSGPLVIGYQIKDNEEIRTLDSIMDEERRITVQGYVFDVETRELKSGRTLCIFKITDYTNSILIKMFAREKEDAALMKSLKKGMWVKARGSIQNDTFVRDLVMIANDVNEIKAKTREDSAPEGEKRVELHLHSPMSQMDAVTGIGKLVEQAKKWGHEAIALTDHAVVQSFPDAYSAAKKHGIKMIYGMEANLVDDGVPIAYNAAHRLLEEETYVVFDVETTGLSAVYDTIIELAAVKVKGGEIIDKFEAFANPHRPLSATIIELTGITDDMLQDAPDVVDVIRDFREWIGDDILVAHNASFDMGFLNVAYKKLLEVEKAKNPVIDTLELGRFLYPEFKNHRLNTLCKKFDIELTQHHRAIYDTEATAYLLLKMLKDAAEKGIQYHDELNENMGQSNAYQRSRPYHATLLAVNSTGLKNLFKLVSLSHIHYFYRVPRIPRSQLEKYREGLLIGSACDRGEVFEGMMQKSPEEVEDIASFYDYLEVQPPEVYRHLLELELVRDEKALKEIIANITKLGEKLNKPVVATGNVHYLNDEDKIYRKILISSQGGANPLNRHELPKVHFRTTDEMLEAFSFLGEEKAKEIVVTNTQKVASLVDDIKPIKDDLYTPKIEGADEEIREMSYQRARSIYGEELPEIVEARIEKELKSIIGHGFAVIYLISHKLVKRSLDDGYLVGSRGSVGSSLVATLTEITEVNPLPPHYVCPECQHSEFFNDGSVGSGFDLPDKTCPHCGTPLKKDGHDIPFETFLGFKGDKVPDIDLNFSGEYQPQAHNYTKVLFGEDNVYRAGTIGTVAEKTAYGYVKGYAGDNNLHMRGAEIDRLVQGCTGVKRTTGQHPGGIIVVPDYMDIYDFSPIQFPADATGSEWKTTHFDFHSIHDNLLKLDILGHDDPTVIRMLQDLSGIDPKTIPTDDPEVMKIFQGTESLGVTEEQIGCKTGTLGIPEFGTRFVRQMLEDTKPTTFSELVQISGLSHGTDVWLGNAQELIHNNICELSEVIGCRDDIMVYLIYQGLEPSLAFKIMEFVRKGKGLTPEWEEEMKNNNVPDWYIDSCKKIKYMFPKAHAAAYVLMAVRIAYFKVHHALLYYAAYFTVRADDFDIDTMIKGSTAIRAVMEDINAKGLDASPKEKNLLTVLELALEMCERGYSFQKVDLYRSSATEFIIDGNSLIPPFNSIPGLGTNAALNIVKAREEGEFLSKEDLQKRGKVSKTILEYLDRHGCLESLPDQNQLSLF
- procedure-text: qHTS Validation Assay for the Inhibitors of DNA Replication in Gram-Positive Bacteria (AID 485295)
- test-parameters: Gram-positive bacterial DNA replication assay; series mostly up to 57.1 µM
Activity calls are given as the source filed them. The call rests on the fitted dose curve; in most records, active means well fitted inhibition curve with a large enough effect; inconclusive means small, poorly fitted or top-dose-only effect; inactive means flat fitted curve, though single readings scatter.
Outcomes: active, inactive

[
  {
    "molecule": "OC[C@H]1NC[C@@H](O)[C@@H]1O",
    "qualitative-label": "inactive"
  },
  {
    "molecule": "OC[C@H]1O[C@@H](n2cnc3cncnc32)[C@H](O)[C@@H]1O",
    "qualitative-label": "inactive"
  },
  {
    "molecule": "N[C@@H](Cc1ccc(F)cc1)C(=O)O",
    "qualitative-label": "inactive"
  },
  {
    "molecule": "CC[C@@H]1Cc2cc(O)ccc2C2=C1c1ccc(O)cc1C[C@H]2CC",
    "qualitative-label": "inactive"
  },
  {
    "molecule": "NC(N)=NC(N)=Nc1ccccc1",
    "qualitative-label": "inactive"
  },
  {
    "molecule": "CC(C)Cn1c(=O)n(C)c(=O)c2[nH]cnc21",
    "qualitative-label": "inactive"
  },
  {
    "molecule": "CC(C)NCC(O)COc1ccc(CC(N)=O)cc1 (stereo unspecified)",
    "qualitative-label": "inactive"
  },
  {
    "molecule": "CC1=C(/C=C/C(C)=C/C=C/C(C)=C\\C(=O)O)C(C)(C)CCC1",
    "qualitative-label": "inactive"
  },
  {
    "molecule": "O=C(O)C1CCCNC1 (stereo unspecified)",
    "qualitative-label": "inactive"
  },
  {
    "molecule": "S=C(S)N1CCCC1",
    "qualitative-label": "inactive"
  },
  {
    "molecule": "Cc1nc2c(OCc3ccccc3)cccn2c1CC#N",
    "qualitative-label": "inactive"
  },
  {
    "molecule": "Nc1nc2c(nc(Br)n2C2OC3COP(=O)(O)O[C@@H]3C2O)c(=O)[nH]1 (stereo partly specified)",
    "qualitative-label": "inactive"
  },
  {
    "molecule": "CC(=O)N[C@@H](Cc1c[nH]c2ccccc12)C(=O)OCc1cc(C(F)(F)F)cc(C(F)(F)F)c1",
    "qualitative-label": "inactive"
  },
  {
    "molecule": "N=C(N)c1ccc(N)cc1",
    "qualitative-label": "inactive"
  },
  {
    "molecule": "Nc1ccc(-c2nc3ccc(-c4nc5ccc(N)cc5[nH]4)cc3[nH]2)cc1",
    "qualitative-label": "active"
  },
  {
    "molecule": "O=C(c1ccc2c(c1)OCCO2)N1CCCCC1",
    "qualitative-label": "inactive"
  },
  {
    "molecule": "Nc1ncnc2c1nc(Sc1ccc(Cl)cc1)n2[C@H]1OC2COP(=O)(O)O[C@@H]2C1O (stereo partly specified)",
    "qualitative-label": "inactive"
  },
  {
    "molecule": "NC(=Nc1ccccc1)NC(=O)c1nc(Cl)c(N)nc1N",
    "qualitative-label": "inactive"
  },
  {
    "molecule": "CCCCCC(O)CCCC(=O)O (stereo unspecified)",
    "qualitative-label": "inactive"
  },
  {
    "molecule": "Cc1cccc(C)c1OCC(N)C(C)C (stereo unspecified)",
    "qualitative-label": "inactive"
  },
  {
    "molecule": "NCC(O)C1CCCCCCC1 (stereo unspecified)",
    "qualitative-label": "inactive"
  },
  {
    "molecule": "CN[C@H](CC(=O)O)C(=O)O",
    "qualitative-label": "inactive"
  },
  {
    "molecule": "Cc1cc2c(cc1Cl)N(C(=O)Nc1ccnc3ccccc13)CC2",
    "qualitative-label": "inactive"
  },
  {
    "molecule": "CC(=O)NNC(=O)N1Cc2ccccc2Oc2ccc(Cl)cc21",
    "qualitative-label": "inactive"
  },
  {
    "molecule": "CCCCCCC/C=C\\CCCCCCCCC(=O)O",
    "qualitative-label": "inactive"
  },
  {
    "molecule": "CC(O)C(O)[C@H]1CNc2nc(N)[nH]c(=O)c2N1 (stereo partly specified)",
    "qualitative-label": "inactive"
  }
]

Just for reference, PubChem BioAssay (NCATS) is where these values come from.
